Assay: In vitro rat microsomal stability assay
Assay type: in vitro ADME, rat (Sprague-Dawley)
Conditions: Sprague-Dawley, rat, 0.5 h, 0.5 μM, pH 7.4
Property Measured: RAT MICROSOMAL STABILITY (% REMAINING AFTER 30 MINUTES) (%)
Number in %, nothing else.

Study these solved cases before continuing.
> print(dat)
                                   molecule  result.value
1  CC1(O)CC(c2cccc(C(F)(F)F)c2)(C(O)c2ccccn2)C1 (single isomer, unassigned) [Example 236]            41
2  OC(c1ccccn1)C1(c2ccccc2OC(F)(F)F)CCNCC1 (stereo not drawn)            37
3  O=C1CC(c2ccc(C(F)(F)F)cc2)([C@H](O)c2ccccn2)C1            81

Can you look up the measured RAT MICROSOMAL STABILITY (% REMAINING AFTER 30 MINUTES) of CN1CC(c2ccc(C(F)(F)F)cc2)(C(O)c2ccccn2)C1 (stereo not drawn) for me? 76

Follow-up entry: "O[C@H](c1ccccn1)C1(c2ccnc(C(F)(F)F)c2)CCC1" 38

The reported measurements were obtained from patent US8772500B2.
